All values here come from PubChem BioAssay (NCI).

System: NCI-H23 lung
METHOD NOTES: NCI tumour cell line growth inhibition, 48 h; in the data active = GI50 below about 0.43 µM; inactive = the rest
Pick one: y for active, n for inactive

- C[C@]12CC[C@@H]3c4ccc(O)cc4CC[C@H]3[C@@H]1CC[C@@H]2NS(=O)(=O)c1ccc(-c2ccccc2)cc1: n
- C#Cc1ccc(-n2c(/C=C/c3cc(OC)c(OC)c(OC)c3)nc3ncccc3c2=O)cc1: n
- OCCCCC#Cc1ccccc1C#Cc1cnccn1: n
- COC(=O)Nc1nc2ccc(Sc3ccc(NC(=O)Nc4cc(C(F)(F)F)ccc4F)cc3)cc2[nH]1: n
- Cc1ccc(OCCCCCCNCCO)c(C)c1: n
- O=c1c2cc(F)ccc2sc2c(NCCCN3CCCC3)nc3ccccc3c12: n

Dear all, I need the recorded test outcome for COc1ccc(CC2C(=O)NC(C)C(=O)N(C)C3Cc4ccc(cc4)Oc4cc(ccc4O)CC(C(=O)NC(C)C(=O)NC(C)C(=O)N2C)N(C)C3=O)cc1 (centres undefined) , thank you.
y

For "COc1cc(/C=C\c2cccnc2Nc2ccccc2)cc(OC)c1OC" , what call appears in the results of this test?
n

Just curious, what result did CCCCCCCCCCCCNC(=O)[C@H]1CSC(c2ccc(OC)c(F)c2)N1 (some centres undefined) get here?
n
